- target.desc: MurA (UniProt Q3YX52)
- Sequence (Q3YX52 whole entry): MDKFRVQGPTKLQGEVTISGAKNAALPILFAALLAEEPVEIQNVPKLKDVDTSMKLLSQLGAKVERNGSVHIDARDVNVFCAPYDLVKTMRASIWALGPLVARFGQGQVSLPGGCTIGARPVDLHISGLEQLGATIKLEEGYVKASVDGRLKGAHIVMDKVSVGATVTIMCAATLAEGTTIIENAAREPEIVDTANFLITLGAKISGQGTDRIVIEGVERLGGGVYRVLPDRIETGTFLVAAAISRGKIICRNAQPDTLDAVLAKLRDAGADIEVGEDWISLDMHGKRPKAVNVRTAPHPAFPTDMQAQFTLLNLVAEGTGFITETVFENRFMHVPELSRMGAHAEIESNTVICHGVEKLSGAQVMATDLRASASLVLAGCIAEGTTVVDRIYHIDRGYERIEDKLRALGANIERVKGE
- assay.comment: relative enzymatic activity vs untreated control (fraction); higher = less inhibition
- condition.info: 100 µM; incubation time: 2 h at 37 C
Give met when the value for relative enzymatic activity is at least 0.6. Give not met when it is less.

INSERT INTO assay_data (compound, assigned_label) VALUES
  ('Cl.O=C1CC2(CCCC2)CC(=O)N1CCCCN1CCN(c2ncccn2)CC1', 'met'),
  ('CNC1C(O)C(NC)C2OC3(O)C(=O)CC(C)OC3OC2C1O.Cl.Cl (stereo not given)', 'not met'),
  ('CC1C(NC(=O)C(=NOC(C)(C)C(=O)O)c2csc(N)n2)C(=O)N1S(=O)(=O)O (stereo not given)', 'met'),
  ('CN[C@@H]1[C@H](O[C@H]2[C@H](O[C@@H]3[C@@H](O)[C@H](O)[C@@H](NC(=N)N)[C@H](O)[C@H]3NC(=N)N)O[C@@H](C)[C@]2(O)CO)O[C@@H](CO)[C@H](O)[C@H]1O.CN[C@@H]1[C@H](O[C@H]2[C@H](O[C@@H]3[C@@H](O)[C@H](O)[C@@H](NC(=N)N)[C@H](O)[C@H]3NC(=N)N)O[C@@H](C)[C@]2(O)CO)O[C@@H](CO)[C@H](O)[C@H]1O', 'met'),
  ('CO/N=C(\C(=O)N[C@@H]1C(=O)N2C(C(=O)O)=C(CSc3nnnn3C)CS[C@H]12)c1csc(N)n1', 'not met'),
  ('CC1CCc2c(N3CCC(O)CC3)c(F)cc3c(=O)c(C(=O)O)cn1c23 (stereo not given)', 'met'),
  ('CN(C)C1C(O)=C(C(N)=O)C(=O)C2(O)C(O)=C3C(=O)c4c(O)ccc(Cl)c4C(O)C3CC12.Cl (stereo not given)', 'not met'),
  ('COC1(NC(=O)CSCC#N)C(=O)N2C(C(=O)[O-])=C(CSc3nnnn3C)CSC21.[Na+] (stereo not given)', 'not met'),
  ('COC1(NC(=O)C(C(=O)[O-])c2ccc(O)cc2)C(=O)N2C(C(=O)[O-])=C(CSc3nnnn3C)COC21.[Na+].[Na+] (stereo not given)', 'not met'),
  ('CON=C(C(=O)NC1C(=O)N2C(C(=O)[O-])=C(COC(N)=O)CSC12)c1ccco1.[Na+] (stereo not given)', 'not met'),
  ('CC1(C)S[C@@H]2[C@H](NC(=O)[C@H](NC(=O)N3CCNC3=O)c3ccccc3)C(=O)N2[C@H]1C(=O)O', 'not met'),
  ('N[C@H]1CCN(c2nc3c(cc2F)c(=O)c(C(=O)O)cn3-c2ccc(F)cc2F)C1', 'not met');

###

# relative enzymatic activity values compiled below
- target.desc: Guanlyate kinase (UniProt Q0TBG1)
- Sequence (Q0TBG1 whole entry): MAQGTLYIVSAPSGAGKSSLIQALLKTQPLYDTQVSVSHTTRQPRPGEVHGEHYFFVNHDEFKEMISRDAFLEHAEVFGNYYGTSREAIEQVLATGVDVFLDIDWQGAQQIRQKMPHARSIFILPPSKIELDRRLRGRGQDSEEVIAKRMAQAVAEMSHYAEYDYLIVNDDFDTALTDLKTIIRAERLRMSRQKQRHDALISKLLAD
- assay.comment: relative enzymatic activity vs untreated control (fraction); higher = less inhibition
- condition.info: 100 µM; incubation time: 2 h at 37 C
readout: relative enzymatic activity

INSERT INTO assay_data (compound, obs_value) VALUES
  ('CCn1cc(C(=O)O)c(=O)c2cc(F)c(N3CCNC(C)C3)c(F)c21.Cl (centres undefined)', 1),
  ('O=C([O-])CCC(=O)OCC(NC(=O)C(Cl)Cl)C(O)c1ccc([N+](=O)[O-])cc1.[Na+] (centres undefined)', 1.02),
  ('Cc1cc(C(C)(C)CC(C)(C)C)ccc1OCCOCC[N+](C)(C)Cc1ccccc1.[Cl-]', 0.428),
  ('CCN1CCN(c2cc3c(cc2F)c(=O)c(C(=O)O)cn3C2CC2)CC1', 0.894),
  ('O=C(O)c1cn(C2CC2)c2cc(N3CCNCC3)c(F)cc2c1=O', 0.932),
  ('CN[C@H]1CN(c2ccc3c(=O)c(C(=O)O)cn(-c4nccs4)c3n2)C[C@@H]1OC', 0.851),
  ('Cc1cn([C@H]2C[C@H](N=[N+]=[N-])[C@@H](CO)O2)c(=O)[nH]c1=O', 0.885),
  ('COC1C=COC2(C)Oc3c(C)c(O)c4c(O)c(c5c(nc6cc(C)ccn65)c4c3C2=O)NC(=O)C(C)=CC=CC(C)C(O)C(C)C(O)C(C)C(OC(C)=O)C1C (centres undefined)', 0.583),
  ('N[C@@H]1CN(c2c(F)cc3c(=O)c(C(=O)O)cn([C@@H]4C[C@@H]4F)c3c2Cl)CC12CC2', 1);
